Test Target: lactate dehydrogenase (LDH) (Oryctolagus cuniculus, UniProt P13491)
Construct: LDH from Rabbit Muscle; from tissue; host or cells: rabbit muscle
Experiment: LDH kinetic assay, spectrophotometric oxidation of NADH at 340 nm
Assay type: biochemical, Rabbit
Settings: Example 37, FIG. 17
Observed Property: pIC50
pIC50 is defined as minus the log10 of a concentration measured in mol/L.

Exercise: Which pIC50 value belongs to O=C1NC(=S)SC1=Cc1ccc(-c2ccc(O)c(C(=O)O)c2)o1 ?
Solution: 6.47

###

Test Target: 1-deoxy-D-xylulose-5-phosphate reductase (DOXPR) (Escherichia coli, UniProt P45568)
Sequence (P45568 whole entry): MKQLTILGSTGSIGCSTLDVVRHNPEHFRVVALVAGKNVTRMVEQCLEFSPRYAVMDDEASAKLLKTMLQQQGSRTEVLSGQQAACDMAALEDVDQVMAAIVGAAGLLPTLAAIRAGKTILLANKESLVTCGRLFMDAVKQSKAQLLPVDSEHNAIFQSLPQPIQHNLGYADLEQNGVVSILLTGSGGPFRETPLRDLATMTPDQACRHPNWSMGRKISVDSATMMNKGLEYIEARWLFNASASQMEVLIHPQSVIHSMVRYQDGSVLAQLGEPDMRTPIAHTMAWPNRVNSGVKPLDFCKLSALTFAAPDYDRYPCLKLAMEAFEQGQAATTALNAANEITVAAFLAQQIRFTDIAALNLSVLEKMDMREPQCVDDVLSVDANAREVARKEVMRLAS
Experiment: DOXPR kinetic assay, spectrophotometric oxidation of NADPH at 340 nm
Assay type: biochemical
Settings: IC50 for DOXPR, Examples 36/37, FIG. 16/17
Procedure: DOXPR was diluted in 10 mM HEPES at a pH of 7.4. Solutions of the inhibitors in DMSO were prepared to provide a final DMSO concentration of 5% of the total assay volume. […] The oxidation reaction was then initiated with 10 μl of DOXP reductoisomerase (10 μg/ml). […] Reading of the samples was continued until 300 seconds. […] The substrate was kept at a level at least 10 times the Km.
Observed Property: IC50 (nM)
Return type: number; implicit unit nM.

Exercise: Reported IC50 for O=C1NC(=S)SC1=Cc1ccc(-c2ccc(O)c(C(=O)O)c2)o1 [Compound 7e] : what is it?
Solution: 1600

Recorded values, source patent US20050042674A9.
